Target: COX-1 (Homo sapiens, UniProt P23219)
Construct: endogenous in cells
Sequence (P23219 24-599): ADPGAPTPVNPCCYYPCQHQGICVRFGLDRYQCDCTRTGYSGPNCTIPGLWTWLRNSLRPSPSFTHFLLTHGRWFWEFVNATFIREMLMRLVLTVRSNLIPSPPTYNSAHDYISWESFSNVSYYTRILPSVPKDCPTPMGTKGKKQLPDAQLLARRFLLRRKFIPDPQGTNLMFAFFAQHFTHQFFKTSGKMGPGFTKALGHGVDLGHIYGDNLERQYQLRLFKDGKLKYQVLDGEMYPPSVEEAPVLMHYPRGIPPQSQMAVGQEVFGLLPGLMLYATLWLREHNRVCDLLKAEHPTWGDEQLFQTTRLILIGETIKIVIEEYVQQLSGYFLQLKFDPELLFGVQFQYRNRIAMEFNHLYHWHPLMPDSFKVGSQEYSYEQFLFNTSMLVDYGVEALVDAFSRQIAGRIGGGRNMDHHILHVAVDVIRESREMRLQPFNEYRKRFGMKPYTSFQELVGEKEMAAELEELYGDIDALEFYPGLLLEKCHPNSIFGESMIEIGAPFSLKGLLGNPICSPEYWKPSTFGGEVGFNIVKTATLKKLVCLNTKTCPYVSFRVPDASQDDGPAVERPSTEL
Experiment: Assay for the COX-1 inhibitory activity using U-937 (PGE2 inhibition)
Format: cell-based
Details: test compound 1 μM; U-937 human lymphoma cells; PGE2 vs DMSO control; read-out: Cyclooxygenase (COX) Inhibition (%) COX-1 (1 μM)
endpoint.label: inhibition at 1 µM (%)
Use % as the unit, but write only the number.

Here are 3 molecules together with their reported answers.
# molecule, unit.annotation, inhibition at 1 µM
measured = [
    ("COc1ccc(-c2c(-c3ccc(S(C)(=O)=O)cc3)n(C)n(C)c2=O)cc1 [Example 5]", "%", 10.5),
    ("Cc1ccc(-c2c(-c3ccc(S(C)(=O)=O)cc3)n(C)n(C)c2=O)cc1 [Example 7]", "%", 36.5),
    ("Cn1c(-c2ccc(S(C)(=O)=O)cc2)c(-c2ccccc2)c(=O)n1C [Example 6]", "%", 22.6),
]

Consider now this further molecule.
QUERY: Could you tell me which inhibition at 1 µM is on file for Cc1onc(-c2ccccc2)c1-c1ccc(S(N)(=O)=O)cc1 [Reference (Valdecoxib), Valdecoxib, reference compound] ?
RESULT: 28.8
